The reader will find reported IC50 values listed item by item below.
Biological target: DGKα (Homo sapiens (Human), UniProt P23743)
Sequence (P23743 whole entry): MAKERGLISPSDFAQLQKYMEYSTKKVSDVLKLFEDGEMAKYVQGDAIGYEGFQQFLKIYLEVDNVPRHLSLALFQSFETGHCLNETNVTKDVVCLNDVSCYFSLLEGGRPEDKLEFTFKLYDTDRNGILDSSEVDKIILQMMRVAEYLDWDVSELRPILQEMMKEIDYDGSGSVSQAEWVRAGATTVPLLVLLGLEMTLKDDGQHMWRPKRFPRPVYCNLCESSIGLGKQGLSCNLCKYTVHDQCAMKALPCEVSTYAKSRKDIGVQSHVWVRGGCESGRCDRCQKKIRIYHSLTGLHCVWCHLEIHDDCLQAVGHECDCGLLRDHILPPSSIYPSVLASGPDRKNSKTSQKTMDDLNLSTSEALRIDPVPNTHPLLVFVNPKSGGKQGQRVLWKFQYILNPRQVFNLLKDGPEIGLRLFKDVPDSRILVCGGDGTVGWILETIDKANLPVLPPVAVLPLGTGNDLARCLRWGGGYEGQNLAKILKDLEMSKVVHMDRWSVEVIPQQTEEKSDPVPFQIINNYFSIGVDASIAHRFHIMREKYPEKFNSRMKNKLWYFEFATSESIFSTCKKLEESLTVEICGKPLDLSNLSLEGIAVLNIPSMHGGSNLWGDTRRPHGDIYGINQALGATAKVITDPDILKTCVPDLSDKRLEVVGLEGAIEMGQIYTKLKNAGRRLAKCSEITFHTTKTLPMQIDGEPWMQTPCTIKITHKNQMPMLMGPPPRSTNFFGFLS
Test: In vitro DGKα inhibition assay (ADP-Glo)
Conditions: His-tagged human recombinant DGKα 0.1 nM, 50 μM ATP, 20 μM DLG
Readout Name: IC50

• CN1C(=O)CC2CN(C(c3ccc(F)cc3)c3ccc(F)cc3)CCN2c2c1c(=O)n(C)c1ccc(C#N)nc21 (single isomer, unassigned) [Example 2] = 40 to 200 nM
• Cn1c(=O)c2c(c3nc(CC#N)ccc31)N1CCN(C(c3ccc(F)cc3)c3ccc(F)cc3)C[C@@H]1COC2=O = ≤ 40 nM
• Cn1c(=O)c2c(c3nc(C#N)ccc31)N1CCN(C(c3ccc(F)cc3)c3ccc(F)cc3)C[C@H]1COC2=O = ≤ 40 nM
• Cn1c(=O)c2c(c3nc(CC#N)cnc31)N1CCN(C(c3ccc(F)cc3)c3ccc(F)cc3)C[C@@H]1COC2=O = 40 to 200 nM
• Cn1c(=O)c2c(c3ncc(C#N)cc31)N1CCN(C(c3ccc(F)cc3)c3ccc(F)cc3)C[C@@H]1COC2=O = ≤ 40 nM
• Cn1c(=O)c2c(c3nc(C#N)ccc31)N1CCN(C(c3ccc(F)cc3)c3ccc(F)cc3)C[C@@H]1COC2=O = ≤ 40 nM
• C[C@@H]1CN2c3c(c(=O)n(C)c4ccc(C#N)nc34)C(=O)OC[C@H]2CN1C(c1ccc(F)cc1)c1ccc(F)cc1 = ≤ 40 nM
• CN1C(=O)CC2CN(C(c3ccc(F)cc3)c3ccc(F)cc3)CCN2c2c1c(=O)n(C)c1ccc(C#N)nc21 (single isomer, unassigned) [Example 1] = ≤ 40 nM

###

The reader will find reported pIC50 values listed item by item below.
Target: UniProt:Q13574
Sequence (Q13574 whole entry): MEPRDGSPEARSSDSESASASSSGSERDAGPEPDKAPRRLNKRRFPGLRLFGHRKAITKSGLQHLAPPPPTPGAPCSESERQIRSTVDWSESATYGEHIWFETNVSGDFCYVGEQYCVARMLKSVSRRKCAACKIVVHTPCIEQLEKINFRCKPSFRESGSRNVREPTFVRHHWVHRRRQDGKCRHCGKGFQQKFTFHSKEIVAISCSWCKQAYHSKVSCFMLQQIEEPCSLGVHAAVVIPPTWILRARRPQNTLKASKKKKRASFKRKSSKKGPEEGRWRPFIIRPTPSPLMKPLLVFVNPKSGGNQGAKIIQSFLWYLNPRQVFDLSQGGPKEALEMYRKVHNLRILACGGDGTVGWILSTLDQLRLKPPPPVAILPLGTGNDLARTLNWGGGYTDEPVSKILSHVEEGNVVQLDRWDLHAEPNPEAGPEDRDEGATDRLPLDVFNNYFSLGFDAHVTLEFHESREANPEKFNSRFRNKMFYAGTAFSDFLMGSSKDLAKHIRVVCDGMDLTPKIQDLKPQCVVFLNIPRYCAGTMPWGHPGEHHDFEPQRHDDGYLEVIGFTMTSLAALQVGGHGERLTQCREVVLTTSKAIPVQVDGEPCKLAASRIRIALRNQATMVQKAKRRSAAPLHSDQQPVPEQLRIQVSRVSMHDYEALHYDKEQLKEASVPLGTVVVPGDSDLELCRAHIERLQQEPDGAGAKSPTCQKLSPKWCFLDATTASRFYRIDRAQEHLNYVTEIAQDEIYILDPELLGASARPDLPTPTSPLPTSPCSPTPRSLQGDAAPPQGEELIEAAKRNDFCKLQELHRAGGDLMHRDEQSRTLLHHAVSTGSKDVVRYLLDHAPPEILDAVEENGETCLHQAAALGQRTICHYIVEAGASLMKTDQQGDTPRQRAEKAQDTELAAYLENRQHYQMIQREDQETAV
Assay: In vitro DGKζ inhibition assay (ADP-Glo)
Conditions: His-tagged human recombinant DGKζ 0.4 nM, 30 μM ATP, 20 μM DLG
pIC50: −log10 of the molar value.
Readout Name: pIC50

• Cn1c(=O)c2c(c3ncc(CC#N)cc31)N1CCN(C(c3ccc(F)cc3)c3ccc(F)cc3)C[C@@H]1COC2=O = < 5.70
• CN1C(=O)CC2CN(C(c3ccc(F)cc3)c3ccc(F)cc3)CCN2c2c1c(=O)n(C)c1ccc(C#N)nc21 (single isomer, unassigned) [Example 1] = 5.70 to 6.70
• CN1C(=O)CC2CN(C(c3ccc(F)cc3)c3ccc(F)cc3)CCN2c2c1c(=O)n(C)c1ccc(C#N)nc21 (single isomer, unassigned) [Example 2] = ≥ 7.40
• Cn1c(=O)c2c(c3cc(CC#N)ccc31)N1CCN(C(c3ccc(F)cc3)c3ccc(F)cc3)C[C@@H]1COC2=O = 6.70 to 7.40
• Cn1c(=O)c2c(c3nc(CC#N)ccc31)N1CCN(C(c3ccc(F)cc3)c3ccc(F)cc3)C[C@@H]1COC2=O = ≥ 7.40
• Cn1c(=O)c2c(c3nc(C#N)ccc31)N1CCN(C(c3ccc(F)cc3)c3ccc(F)cc3)C[C@@H]1COC2=O = ≥ 7.40
• Cn1c(=O)c2c(c3nc(CC#N)cnc31)N1CCN(C(c3ccc(F)cc3)c3ccc(F)cc3)C[C@@H]1COC2=O = 6.70 to 7.40
• Cn1c(=O)c2c(c3ncc(C#N)cc31)N1CCN(C(c3ccc(F)cc3)c3ccc(F)cc3)C[C@@H]1COC2=O = < 5.70
• Cn1c(=O)c2c(c3nc(C#N)ccc31)N1CCN(C(c3ccc(F)cc3)c3ccc(F)cc3)C[C@H]1COC2=O = ≥ 7.40
• C[C@@H]1CN2c3c(c(=O)n(C)c4ccc(C#N)nc34)C(=O)OC[C@H]2CN1C(c1ccc(F)cc1)c1ccc(F)cc1 = 5.70 to 6.70

src = patent US20240025900A1
